System: Lolium perenne (LOLPE)
Assay text: Post-emergence efficacy, glasshouse, evaluated after 13 days
Format: in vivo
Experimental context: Lolium perenne, 312 h; post-emergence application, 500 g/Ha, evaluated after 13 days; read-out: Control of weed species LOLPE (100=total damage to plant; 0=no damage to plant)
The threshold is inclusive: pest or weed control at 500 g/ha of exactly 50% counts as yes; values below receive no.

Q. Form field: pest or weed control at 500 g/ha at least 50%? Entry: O=C(O)CC[n+]1ccc(C(=O)NCc2ccc(C(F)(F)F)cc2)cn1 [Compound A98]
A. no

Q. Form field: pest or weed control at 500 g/ha at least 50%? Entry: Cn1cnc(CNC(=O)c2cc[n+](CCC(=O)O)nc2)n1 [Compound A147]
A. yes

Q. Form field: pest or weed control at 500 g/ha at least 50%? Entry: CC(C)(C)NC(=O)c1cc[n+](CCS(=O)(=O)O)nc1 [Compound A13]
A. yes

Q. Form field: pest or weed control at 500 g/ha at least 50%? Entry: O=C(O)CC[n+]1ccc(C(=O)NCC(F)(F)F)cn1 [Compound A47]
A. no

Q. Form field: pest or weed control at 500 g/ha at least 50%? Entry: O=C(O)CC[n+]1ccc(C(=O)NC2CC2(F)F)cn1 (stereo not drawn) [Compound A95]
A. yes

Q. Form field: pest or weed control at 500 g/ha at least 50%? Entry: CC(CC(=O)O)[n+]1ccc(C(=O)NC2(C#N)CC2)cn1 (stereo not drawn) [Compound A62]
A. yes

Q. Form field: pest or weed control at 500 g/ha at least 50%? Entry: C=CCNC(=O)c1cc[n+](CCCOS(=O)(=O)[O-])nc1 [Compound A125]
A. yes

Q. Form field: pest or weed control at 500 g/ha at least 50%? Entry: CNC(=O)c1cn[n+](CCC(=O)O)cc1C [Compound A53]
A. no

---

Test system: Ipomoea hederacea (IPOHE)
Assay text: Post-emergence efficacy, glasshouse, evaluated after 13 days
Type: in vivo
Experimental context: Ipomoea hederacea, 312 h; post-emergence application, 500 g/Ha, evaluated after 13 days; read-out: Control of weed species IPOHE (100=total damage to plant; 0=no damage to plant)
Assignment: determine reported pest or weed control at 500 g/ha for the given compounds.
Remember to put the unit after the number in your answer.

Q. Need pest or weed control at 500 g/ha, item CNC(=O)c1cc[n+](CCS(=O)(=O)[O-])nc1-c1ccccc1
A. 10%

Q. Need pest or weed control at 500 g/ha, item O=C(NCc1ccc(F)cc1)c1cc[n+](CCS(=O)(=O)[O-])nc1
A. 50%

Q. Need pest or weed control at 500 g/ha, item CN(C)S(=O)(=O)CCNC(=O)c1cc[n+](CCC(=O)O)nc1
A. 20%

Q. Need pest or weed control at 500 g/ha, item O=C(O)CC[n+]1ccc(C(=O)NCC(F)(F)C(F)(F)F)cn1
A. 30%

Q. Need pest or weed control at 500 g/ha, item CC(C)N(C(=O)c1cc[n+](CCS(=O)(=O)O)nc1)C(C)C
A. 30%

---

Assignment: determine reported pest or weed control at 500 g/ha for the given molecules.
System: Digitaria sanguinalis (DIGSA)
Assay text: Post-emergence efficacy, glasshouse, evaluated after 13 days
Assay type: in vivo
Experimental context: Digitaria sanguinalis, 312 h; post-emergence application, 500 g/Ha, evaluated after 13 days; read-out: Control of weed species DIGSA (100=total damage to plant; 0=no damage to plant)
Give the quantity in %, number only.

Q. Need pest or weed control at 500 g/ha, item CC1(C)CC(CCNC(=O)c2cc[n+](CCC(=O)O)nc2)=NO1 [Compound A148, 2,2,2-trifluoroacetate]
A. 80

Q. Need pest or weed control at 500 g/ha, item CC(O)CCNC(=O)c1cc[n+](CCC(=O)O)nc1 (stereo not drawn)
A. 100

Q. Need pest or weed control at 500 g/ha, item O=C(O)CC[n+]1ccc(C(=O)Nc2cnccn2)cn1
A. 70

Q. Need pest or weed control at 500 g/ha, item CC(C)(C)NC(=O)c1cc[n+](CCC(=O)O)nc1
A. 90

Q. Need pest or weed control at 500 g/ha, item O=C(NCc1ccc(F)cc1)c1cc[n+](CCS(=O)(=O)[O-])nc1
A. 60

Q. Need pest or weed control at 500 g/ha, item O=C(O)CC[n+]1ccc(C(=O)NCc2ccccc2)cn1
A. 70

Q. Need pest or weed control at 500 g/ha, item CCNC(=O)c1cc[n+](CCNS(=O)(=O)C(F)(F)F)nc1
A. 90

Q. Need pest or weed control at 500 g/ha, item CC(=O)CCNC(=O)c1cc[n+](CCC(=O)O)nc1
A. 100

Q. Need pest or weed control at 500 g/ha, item CC(C)NC(=O)c1cc[n+](CCC(=O)[O-])nc1
A. 90

Cited source for all entries: patent US20210403435A1
